Test: Cytotoxicity against human MT4 cells assessed as reduction of cell viability
Assay type: cell-based
endpoint name: CC50

For orientation, consider the following solved cases.
- smiles repr: "Nc1ncnc2c1ncn2[C@H]1C=C[C@@H](OCP(=O)(O)O)O1"
  recorded measurement: "> 600 µM"
- smiles repr: "C#C[C@@]1(OCP(=O)(O)O)C=C[C@H](n2cc(C)c(=O)[nH]c2=O)O1"
  recorded measurement: "> 100 µM"
- smiles repr: "Cc1cn([C@H]2C=C[C@@H](CO)O2)c(=O)[nH]c1=O"
  recorded measurement: "> 600 µM"
- smiles repr: "Cc1cn([C@H]2C=C[C@@H](OCP(=O)(O)O)O2)c(=O)[nH]c1=O"
  recorded measurement: "> 600 µM"

Would you kindly look at the next entry?
// returns reported CC50 for input "C#C[C@@]1(OCP(=O)(O)O)C=C[C@H](n2cnc3c(N)ncnc32)O1"
> 100 µM
